Target: MvfR protein (MvfRC87) (Pseudomonas aeruginosa, UniProt Q9I4X0)
Construct: The MvfRC87 protein purified as in Xiao et. al., 2006; made in house
Sequence (Q9I4X0 87-332): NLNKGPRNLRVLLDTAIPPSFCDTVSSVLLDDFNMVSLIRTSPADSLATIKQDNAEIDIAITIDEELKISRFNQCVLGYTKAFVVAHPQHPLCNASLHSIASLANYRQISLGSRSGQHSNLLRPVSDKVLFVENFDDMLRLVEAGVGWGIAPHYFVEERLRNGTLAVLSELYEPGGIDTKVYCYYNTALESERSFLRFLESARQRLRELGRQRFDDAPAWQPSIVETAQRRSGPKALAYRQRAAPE
Format: binding
Conditions: SPR; Concentration 3.16E-08 M

{"Compound": "CC(C(=O)Nc1ccc(C#N)cc1)C(=O)Nc1ccc(C#N)cc1", "System Name": "MvfR protein (MvfRC87) (Pseudomonas aeruginosa, UniProt Q9I4X0)", "Response Unit (RU)": 2.6}
{"Compound": "N#Cc1ccc(NC(=O)CC(=O)Nc2ccc(Br)cc2)cc1", "System Name": "MvfR protein (MvfRC87) (Pseudomonas aeruginosa, UniProt Q9I4X0)", "Response Unit (RU)": 5}
{"Compound": "N#Cc1ccc(NC(=O)CC(=O)Nc2ccc(C#N)cc2)cc1", "System Name": "MvfR protein (MvfRC87) (Pseudomonas aeruginosa, UniProt Q9I4X0)", "Response Unit (RU)": 5}
{"Compound": "N#Cc1ccc(NC(=O)C(F)C(=O)Nc2ccc(Oc3ccccc3)cc2)cc1 (centres unmarked)", "System Name": "MvfR protein (MvfRC87) (Pseudomonas aeruginosa, UniProt Q9I4X0)", "Response Unit (RU)": 2.3}
{"Compound": "N#Cc1ccc(NC(=O)CC(=O)Nc2ccc(Cl)cc2)cc1", "System Name": "MvfR protein (MvfRC87) (Pseudomonas aeruginosa, UniProt Q9I4X0)", "Response Unit (RU)": 5.4}

====

Experiment: DMPK of D88 in mice (plasma)
Type: in vivo, mouse
Details: male, CD-1, mouse; 1 mg/kg IV, plasma
Property: Cmax (ng/mL)

{"Compound": "N#Cc1ccc(NC(=O)C(F)C(=O)Nc2ccc(Oc3ccccc3)cc2)cc1 (stereo not shown)", "Property": "Cmax", "Recorded Result": 1090}

====

Experiment: Solubility in iPBS pH 7.4 by HPLC
Format: physicochemical
Conditions: pH 7.4, aqueous with cosolvent or surfactant or cyclodextrin, kinetic from dmso stock
Property: solubility at 4 h (µM)

{"Smiles Text": "N#Cc1ccc(NC(=O)CC(=O)Nc2ccc(C#N)c(Cl)c2)cc1", "Unit Abbreviation": "µM", "Recorded Result": 17}

====

Target: MvfR protein (MvfRC87) (Pseudomonas aeruginosa, UniProt Q9I4X0)
Construct: The MvfRC87 protein purified as in Xiao et. al., 2006; made in house
Type: binding
Settings: SPR; Concentration 1.00E-05 M
Protocol: The selected compounds were tested for their ability to bind to MvfR. Target validation was carried out by using surface plasmon resonance (SPR). […] RU was analyzed by Biacore T200 evaluation software 2.0 (GE Healthcare). […] These responses were plotted against their respective concentrations for MvfR inhibitor alone and in the presence of native MvfR ligand PQS and compared to the calculated responses for the mixture expected for different binding sites.

{"Molecule": "N#Cc1ccc(NC(=O)CC(=O)Nc2ccc(C#N)nc2)cc1 [D77]", "Unit Abbreviation": "RU", "Response Unit (RU)": 30.9}
{"Molecule": "N#Cc1ccc(NC(=O)CC(=O)Nc2cccc(Cl)c2)cc1 [D71]", "Unit Abbreviation": "RU", "Response Unit (RU)": 31.7}
{"Molecule": "Cc1cc(F)ccc1NCC(=O)Nc1ccc(C#N)cc1 [M17]", "Unit Abbreviation": "RU", "Response Unit (RU)": 18.8}
{"Molecule": "N#Cc1ccc(NC(=O)CC(=O)Nc2ccc(Oc3ccccc3)cc2)cc1 [D57]", "Unit Abbreviation": "RU", "Response Unit (RU)": 33.5}
{"Molecule": "CC(C(=O)Nc1ccc(C#N)cc1)C(=O)Nc1ccc(C#N)cc1 [D80]", "Unit Abbreviation": "RU", "Response Unit (RU)": 35.4}
{"Molecule": "N#Cc1ccc(NC(=O)CC(=O)Nc2ccc(Cl)cc2)cc1 [D41]", "Unit Abbreviation": "RU", "Response Unit (RU)": 28.8}
{"Molecule": "N#Cc1ccc(NC(=O)CC(=O)Nc2ccc(C#N)cc2)cc1 [D43]", "Unit Abbreviation": "RU", "Response Unit (RU)": 29.2}
{"Molecule": "N#Cc1ccc(NC(=O)CC(=O)Nc2ccc(C(F)(F)F)cc2)cc1 [D69]", "Unit Abbreviation": "RU", "Response Unit (RU)": 30}
{"Molecule": "N#Cc1ccc(NC(=O)CC(=O)Nc2ccc(Br)cc2)cc1 [D42]", "Unit Abbreviation": "RU", "Response Unit (RU)": 30}
{"Molecule": "N#Cc1ccc(NC(=O)C(F)C(=O)Nc2ccc(Oc3ccccc3)cc2)cc1 (stereo not shown) [D88]", "Unit Abbreviation": "RU", "Response Unit (RU)": 36.6}
